The measurements presented in this section are drawn from ChEMBL document CHEMBL5365500.

Entries and their MIC
- Test system: Enterococcus faecalis
- protocol text: Antimicrobial activity against antibiotic-resistant Enterococcus faecalis ATCC 51299 assessed as inhibition of visible growth measured after 20 to 24 hrs incubation by CLSI method
- Format: functional
- experimental context: time 20-24 hrs
Respond with the bare value in µg/mL.

Example cases with answers are listed next.
>  <item smiles>
O=C(O)c1ccc(-n2cc(CNc3ccc(Br)c(Cl)c3)c(-c3ccc(F)c(F)c3)n2)cc1

>  <MIC / µg/mL>
4

$$$$
>  <item smiles>
O=C(O)c1ccc(-n2cc(CNc3cc(Cl)cc(C(F)(F)F)c3)c(-c3cccc(F)c3)n2)cc1

>  <MIC / µg/mL>
2

$$$$

Sample O=C(O)c1ccc(-n2cc(CNc3ccc(Cl)c(C(F)(F)F)c3)c(-c3ccc(F)c(F)c3)n2)cc1 — what was its MIC?
4

Please look up its MIC: CC(C)(C)c1ccc(NCc2cn(-c3ccc(C(=O)O)cc3)nc2-c2ccc(F)cc2)cc1
8

Which MIC is reported for this compound? O=C(O)c1ccc(-n2cc(CNc3cc(F)cc(C(F)(F)F)c3)c(-c3cccc(F)c3)n2)cc1
8
